Values compiled from ChEMBL document CHEMBL1759974.

- Assay Text: Half life in Sprague-Dawley rat at 0.5 mg/kg, iv
- Assay type: ADME, organism-based
- Design: dose 0.5 mg/kg, route intravenous
- Measurement Conditions: in vivo
Assay Readout: half-life

The compound listed as `Cc1nc(NCC#N)nc(-n2c(Nc3ccn[nH]3)nc3ccccc32)n1` shows half-life equal to 27 min

====

- Tested on: A-375
- Assay Text: Antiproliferative activity against human A375 cells harboring BRAF gene mutation/amplification at 1 uM after 72 hrs by Ambit assay in presence of 10% serum
- Assay type: functional, cell-based
- Measurement Conditions: A-375, 72 h
Assay Readout: IC50 (nM)
Quick reminder: number only, in nM, skip the unit.

The compound listed as `Cc1nc(NCC#N)nc(-n2c(Nc3cc[nH]n3)nc3ccccc32)n1` shows IC50 equal to 380
